The entries below come with measured yeast fitness values attached.
B1: tRNA (parent)
chain: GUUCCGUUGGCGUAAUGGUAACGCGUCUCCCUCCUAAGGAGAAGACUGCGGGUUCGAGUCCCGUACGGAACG

Variants of: B1
assayProtocol: yeast fitness relative to wild type (ratio to wild type); higher = fitter; tRNA-Arg(CCU), competitive growth, 37 C, YPD
Variants at the floor of the assay were thinned out.
Give your answer as a number; write no unit.

Some variants with known yeast fitness results, for comparison:
| variantDesignation | yeast fitness |
| --- | --- |
| U2A G25C A70G | 0.568 |
| C27U G67U | 0.854 |
| G10A A36G G48C | 0.691 |
| U2C G51C | 0.687 |
| G6C C24G C34U U53C C55G C62A | 0.557 |
| C5U U8A C61U | 0.548 |

### Prompt Quick check: yeast fitness of A65G A70G ?
### Response 0.865

### Prompt Quick check: yeast fitness of U32C G67C ?
### Response 0.9

### Prompt Quick check: yeast fitness of A20U G67A ?
### Response 0.657
